Target: T1, HOIP (466-695) (human, UniProt Q96EP0 466-695)
T1 construct: HOIP, human, residues 466-695 (HOIP-UBA together with HOIP 629-695); also called HOIP domain (residues 466-695)
T1 sequence (looked up): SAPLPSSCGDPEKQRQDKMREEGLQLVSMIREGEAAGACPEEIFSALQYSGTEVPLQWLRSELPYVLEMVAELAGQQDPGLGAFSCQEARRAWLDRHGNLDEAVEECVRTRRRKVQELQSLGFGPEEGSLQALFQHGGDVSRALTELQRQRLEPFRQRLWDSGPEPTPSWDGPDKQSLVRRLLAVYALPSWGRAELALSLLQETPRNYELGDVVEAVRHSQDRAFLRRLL
Assay: SPR; Biacore T200; HOIL-1L-UBL immobilised on the sensor chip, HOIP fragments flowed over
Settings: both partners purified
OUTCOME_MEASURE: Kd
Quick note: unit goes after the number.

Entry HOIL-1L-UBL domain (residues 55-135) (domain or fragment, human, UniProt Q9BYM8-1 55-135, looked up, HOIL-1L, human, UBL domain, residues 55-135; also called HOIL-UBL) IRLWVSVEDAQMHTVTIWLTVRPDMTVASLKDMVFLDYGFPPVLQQWVIGQRLARDQETLHSHGVRQNGDSAYLYLLSARN : reported Kd = ?
359 nM
